# Test system: MEK1;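 also: KINOMEscan kinase panel screen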
# Construct: gene MAP2K1
# Recorded Conditions: concentration: 1 μM, replicates: in singlicate; n = 1
# %Inh per record follows
Supply the numeric figure in %, leaving out any unit text.

Cc1ccc(-c2cc(-c3c[nH]nc3-c3ccccn3)ccn2)cc1 [GW684088] :: 9
Cc1ccc(NC(=O)Nc2cccc(Cl)c2)cc1-c1ccc(C(=O)Nc2ccncc2)cc1 [GSK1398468] :: 100
COC(=O)c1c(-c2ccccc2)c2cc(C(=O)O)ccc2c(=O)n1Cc1ccccc1 :: 0
CN(C)CCN(C)C(=O)c1cc(-c2ccncc2)c(-c2ccc(Cl)c(O)c2)o1.Cl.Cl [SB-710397] :: 0
Cc1cccc(-c2cc(Nc3ccncc3)c3ccccc3n2)n1 [GSK223675] :: 0
Cc1ccc(C(=O)Nc2ccc(Nc3ccnc4cc(-c5ccccn5)ccc34)cc2O)cc1.Cl [GW440146] :: 0

# input Tell me the measured %Inh of Cn1cncc1-c1ccc2ncnc(Nc3ccc(OCc4ccccc4)cc3)c2c1 [GW320571] , please.
# output 11

# input Tell me the measured %Inh of Cc1csc(-c2nc(Nc3ccncc3)c3ccccc3n2)n1 [GW869640] , please.
# output 13

# input Tell me the measured %Inh of COc1ccc(C2=C(Nc3cccc(C(=O)O)c3)C(=O)NC2=O)cc1 [SB-390765] , please.
# output 13

# input Tell me the measured %Inh of Fc1cc(Cl)ccc1Nc1ccnc2cc(I)ccc12 [GW551191] , please.
# output 0

# input Tell me the measured %Inh of CCn1c(-c2cccnc2O)nc2cnccc21 [SB-736715] , please.
# output 0

# input Tell me the measured %Inh of Cn1ccc2ncnc(Oc3ccc(NC(=O)Nc4ccccc4)cc3)c21 , please.
# output 0

# input Tell me the measured %Inh of Fc1cc(Cl)ccc1Nc1ccnc2cc(-c3ccc(CN4CCCCC4)o3)ccc12 [GW560116] , please.
# output 4

# input Tell me the measured %Inh of Nc1ncnc2[nH]c(-c3ccccc3)nc12 [AH5015] , please.
# output 0

# input Tell me the measured %Inh of CC1=C(C(=O)Nc2cc3cn[nH]c3cc2F)C(c2ccc(C(F)(F)F)cc2)CC(=O)N1 (stereo not shown) [GSK429286] , please.
# output 0
